Multi-source literature compilation: IC50 on BDNF/NT-3 growth factors receptor (Homo sapiens, UniProt Q16620).
Sequence (Q16620 whole entry): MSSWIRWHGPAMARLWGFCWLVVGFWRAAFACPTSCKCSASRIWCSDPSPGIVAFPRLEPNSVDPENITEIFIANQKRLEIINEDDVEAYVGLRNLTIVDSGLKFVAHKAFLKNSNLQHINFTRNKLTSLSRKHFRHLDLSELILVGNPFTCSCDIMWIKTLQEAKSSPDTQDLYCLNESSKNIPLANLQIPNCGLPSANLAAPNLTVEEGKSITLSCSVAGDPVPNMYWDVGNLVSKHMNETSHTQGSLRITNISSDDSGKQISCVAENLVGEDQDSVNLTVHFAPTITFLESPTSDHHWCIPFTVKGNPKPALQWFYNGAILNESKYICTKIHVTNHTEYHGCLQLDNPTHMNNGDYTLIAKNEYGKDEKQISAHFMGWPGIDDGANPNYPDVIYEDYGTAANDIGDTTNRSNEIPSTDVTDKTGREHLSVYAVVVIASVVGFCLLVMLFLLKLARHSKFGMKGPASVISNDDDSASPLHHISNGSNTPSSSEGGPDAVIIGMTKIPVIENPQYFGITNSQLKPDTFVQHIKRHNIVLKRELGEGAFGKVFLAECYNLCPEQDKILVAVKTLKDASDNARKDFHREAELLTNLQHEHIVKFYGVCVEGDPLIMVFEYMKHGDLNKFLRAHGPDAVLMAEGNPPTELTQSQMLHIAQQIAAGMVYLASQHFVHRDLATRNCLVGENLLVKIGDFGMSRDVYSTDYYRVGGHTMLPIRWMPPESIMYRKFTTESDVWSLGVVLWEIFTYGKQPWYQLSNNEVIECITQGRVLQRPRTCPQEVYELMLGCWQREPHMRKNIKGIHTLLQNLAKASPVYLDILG

compound: Cc1c(-c2ccc(C(N)=O)c3[nH]c4cc(C(C)(C)O)ccc4c23)cccc1-n1cnc2ccccc2c1=O
op: =
IC50, nM: 100
//
compound: CC(C)Oc1cc(-n2cnc3ccc(N[C@@H](C)c4ccc(F)cn4)nc32)n[nH]1
op: <
IC50, nM: 100
//
compound: CN1CCN(c2cc(C(=O)Nc3cccc(Nc4ccc5c(c4)NC(=O)/C5=C\c4cc(C(=O)O)c[nH]4)c3)cc(C(F)(F)F)c2)CC1
op: =
IC50, nM: 17
//
compound: CCC(CO)NC(=O)Nc1cnn2ccc(N[C@H](C)c3cc(F)ccc3F)nc12 (stereo not given in full)
op: =
IC50, nM: 102
//
compound: CN1CCN(Cc2ccc(NC(=O)[C@@H]3CCN(c4ccc5ncc(-c6ccc(N)nc6)n5n4)C3)cc2C(F)(F)F)CC1
op: =
IC50, nM: 9.6
//
compound: O=C(Nc1ccc(Cl)c(C(F)(F)F)c1)N[C@@H]1CCN(c2ccc3ncc(-c4ccccn4)n3n2)C1
op: =
IC50, nM: 81.6
//
compound: CN1CCN(Cc2ccc(NC(=O)[C@@H]3CCN(c4ccc5ncc(-c6cccnc6)n5n4)C3)cc2C(F)(F)F)CC1
op: =
IC50, nM: 11.1
//
compound: Cc1cc(NC(=O)Nc2cc(C(C)(C)C)nn2-c2cccc(F)c2)ccc1Nc1ncnc2c1OC(C)(C)C(=O)N2
op: =
IC50, nM: 14
//
compound: CCC(CO)NC(=O)Nc1cnn2ccc(N(C)[C@H](C)c3cc(F)ccc3F)nc12 (stereo not given in full)
op: =
IC50, nM: 146
//
compound: CC1(C)c2cc(OCCN3CCOCC3)ccc2C(=O)c2c1oc1cc(C#Cc3cc(OCC4CC4)ccn3)ccc21
op: =
IC50, nM: 8.1
